Parameter: pEC50. Scope: all listed entries.
- TEST SYSTEM: T1, human Tissue Factor on human TF-positive cells (human, UniProt P13726 33-295)
- T1 construct: also called hTF; CD142
- ASSAY: flow cytometry, titration of the MC-vc-PAB-MMAE ADC on HCT-116 cells (human TF), 4-parameter fit of MFI
Remember, pEC50 is on a log scale: it is -log10 of the molar concentration.

Before answering, review these 4 worked examples.
| BINDER | pEC50 |
| --- | --- |
| anti-TF antibody 54E conjugated to MC-vc-PAB-MMAE (antibody, IgG1, V domains shown, MC-vc-PAB-MMAE on cysteines of the partially reduced antibody (chain and positions not stated), DAR 3-4, Antibody-drug conjugate (primary ADC) of the IgG1 antibody; also called 54E ADC) VH: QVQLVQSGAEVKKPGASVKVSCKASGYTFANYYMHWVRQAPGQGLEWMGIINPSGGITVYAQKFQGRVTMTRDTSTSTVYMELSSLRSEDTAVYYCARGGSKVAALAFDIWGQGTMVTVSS VL: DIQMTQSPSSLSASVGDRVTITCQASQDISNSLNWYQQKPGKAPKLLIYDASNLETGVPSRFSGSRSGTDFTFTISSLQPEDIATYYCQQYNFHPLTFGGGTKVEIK | 9.48 |
| anti-TF antibody 25G1 conjugated to MC-vc-PAB-MMAE (antibody, IgG1, V domains shown, MC-vc-PAB-MMAE on cysteines of the partially reduced antibody (chain and positions not stated), DAR 3-4, Antibody-drug conjugate (primary ADC) of the IgG1 antibody; also called 25G1 ADC) VH: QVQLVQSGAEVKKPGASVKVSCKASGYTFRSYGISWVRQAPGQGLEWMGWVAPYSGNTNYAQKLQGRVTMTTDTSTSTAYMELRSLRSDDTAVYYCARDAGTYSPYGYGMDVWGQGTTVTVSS VL: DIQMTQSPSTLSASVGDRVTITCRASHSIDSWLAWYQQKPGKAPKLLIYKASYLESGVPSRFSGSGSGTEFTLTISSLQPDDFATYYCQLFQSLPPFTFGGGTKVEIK | 9.77 |
| anti-TF antibody 39A conjugated to MC-vc-PAB-MMAE (antibody, IgG1, V domains shown, MC-vc-PAB-MMAE on cysteines of the partially reduced antibody (chain and positions not stated), DAR 3-4, Antibody-drug conjugate (primary ADC) of the IgG1 antibody; also called 39A ADC) VH: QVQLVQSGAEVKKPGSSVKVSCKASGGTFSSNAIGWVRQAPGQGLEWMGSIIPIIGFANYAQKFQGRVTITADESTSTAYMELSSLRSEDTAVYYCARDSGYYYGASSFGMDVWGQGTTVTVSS VL: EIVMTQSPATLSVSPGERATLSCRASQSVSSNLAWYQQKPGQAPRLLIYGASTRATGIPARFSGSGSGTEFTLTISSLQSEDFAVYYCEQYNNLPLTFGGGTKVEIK | 10.00 |
| 25A-vc-MMAE (antibody, IgG1, V domains shown, MC-vc-PAB-MMAE on cysteines of the partially reduced antibody (chain and positions not stated), DAR 3-4, Antibody-drug conjugate (primary ADC) of the IgG1 antibody; also called 25A ADC; 25A conjugated to MC-vc-PAB-MMAE) VH: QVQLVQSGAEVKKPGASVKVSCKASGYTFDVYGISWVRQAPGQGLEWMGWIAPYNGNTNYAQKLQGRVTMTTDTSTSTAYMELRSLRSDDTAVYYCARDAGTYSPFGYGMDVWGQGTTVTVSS VL: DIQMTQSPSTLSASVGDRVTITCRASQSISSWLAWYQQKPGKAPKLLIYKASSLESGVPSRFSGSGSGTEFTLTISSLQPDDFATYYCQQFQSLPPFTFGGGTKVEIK | 9.47 |

Now examine the next entry.
## Task Supply reported pEC50 belonging to this binder: 25A3-vc-MMAE (antibody, IgG1, V domains shown, MC-vc-PAB-MMAE on cysteines of the partially reduced antibody (chain and positions not stated), DAR 3-4, Antibody-drug conjugate (primary ADC) of the IgG1 antibody; also called 25A3 ADC; 25A3 MMAE ADC) VH: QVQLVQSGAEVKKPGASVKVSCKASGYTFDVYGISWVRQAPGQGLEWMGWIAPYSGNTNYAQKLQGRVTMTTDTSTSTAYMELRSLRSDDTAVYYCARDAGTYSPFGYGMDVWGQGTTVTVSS VL: DIQMTQSPSTLSASVGDRVTITCQASQSINNWLAWYQQKPGKAPKLLIYKAYNLESGVPSRFSGSGSGTEFTLTISSLQPDDFATYYCQLFQSLPPFTFGGGTKVEIK
## Result 9.77
